melting point for assorted molecules

Worked set:
chem-smiles | melting point
CCNC(=O)c1cc(Br)cc(Br)c1NC(=O)c1cc(C(F)(F)F)nn1-c1ncccc1Cl | 188 to 189 °C
CCNC(=O)c1cc(Cl)cc(Cl)c1NC(=O)c1cc(C(F)(F)F)nn1-c1ncccc1Cl | 201 to 202 °C
CNC(=O)c1cc(Br)cc(Br)c1NC(=O)c1cc(C(F)(F)F)nn1-c1ncccc1Cl | 162 to 163 °C

Now for the molecule whose melting point we want.
Inquiry: Identify melting point associated with the molecule `CNC(=O)c1cc(Br)cc(C)c1NC(=O)c1cc(C(F)(F)F)nn1-c1ncccc1Cl`
Reply text: 222 to 223 °C
